This collection of values is drawn from patent US20200031778A1.

assay: Log P by HPLC on reversed phase columns (EEC directive 79/831 Annex V.A8; methods [a], [b], [c]); type: physicochemical; conditions: reversed phase HPLC column; method [a]: LC-UV, acidic range, 0.1% formic acid in water and acetonitrile as eluent (linear gradient from 10% to 95% acetonitrile)
Readout label: chromatographic logP

(1) N#Cc1cncn1CC(=O)c1ccccc1
(2) O=C(Cn1cncc1C(F)(F)F)c1ccc(Oc2ccc(Cl)cc2)cc1F
INPUT: Of 1 and 2 , which shows the smaller chromatographic logP value? Bench note: the answer is the label of the chosen record.
OUTPUT: 1

(1) O=C(Cn1cncc1F)c1cnc(Oc2ccc(C(F)F)cc2)cc1C(F)(F)F
(2) N#Cc1cncn1CC(=O)c1ccco1
INPUT: Thinking about recorded chromatographic logP values, which is higher, 1 or 2 ? Bench note: the answer is the label of the chosen record.
OUTPUT: 1
(1: 2.53, 2: 0.92)

====

assay: Log P by HPLC on reversed phase columns (EEC directive 79/831 Annex V.A8; methods [a], [b], [c]); format: physicochemical
Readout label: LogP

| Molecule | Result |
| --- | --- |
| CCCC(O)(Cn1cncc1C#N)c1ccc(F)cc1 (centres unmarked) [I-378] | 2.21^[a] |
| N#Cc1cncn1CC(O)(C#CC1CC1)C1(Cl)CC1 (centres unmarked) [I-692] | 2.11^[a] |
| CC(O)(Cn1cncc1C#N)c1ccc(Oc2ccc(Cl)cc2)cc1C(F)(F)F (centres unmarked) [I-209] | 3.51^[a] |
| N#Cc1cncn1CC(O)(CC1CC1)c1ccc(C(F)(F)F)cc1Br (centres unmarked) [I-436] | 2.90^[a] |

INPUT: Report LogP, nothing else, for this molecule: OC(Cn1cncc1Cl)c1ccc(Oc2ccc(C(F)(F)F)cc2)cc1Cl (centres unmarked) [I-09]
OUTPUT: 2.82^[a]

====

LogP values for the compounds below.
test: Log P by HPLC on reversed phase columns (EEC directive 79/831 Annex V.A8; methods [a], [b], [c]); type: physicochemical

| Compound | Result |
| --- | --- |
| N#Cc1cncn1CC(O)(c1ccc(Cl)c(F)c1)C1(F)CC1 (centres unmarked) | 2.44^[a] |
| N#Cc1cncn1CC(O)(c1c(F)cc(F)cc1F)C1(F)CC1 (centres unmarked) | 2.07^[a] |
| N#Cc1cncn1CC(O)(c1c(F)ccc(Cl)c1Cl)C1(F)CC1 (centres unmarked) | 2.39^[a] |
| CC(C)(C)C(O)(Cn1cncc1C#N)c1cc(F)c(F)c(F)c1 (centres unmarked) | 2.76^[a] |

Note: attention shifts to another entry.
INPUT: Report LogP, nothing else, for this compound: N#Cc1cncn1CC(O)(c1ccc(Cl)cc1Br)C1(Cl)CC1 (centres unmarked)
OUTPUT: 2.78^[a]

====

LogP values for the compounds below.
assay: Log P by HPLC on reversed phase columns (EEC directive 79/831 Annex V.A8; methods [a], [b], [c]); assay type: physicochemical

| Compound | LogP |
| --- | --- |
| C/C=C(\C)C(O)(Cn1cncc1C#N)c1ccc(Cl)cc1F (stereo not drawn) | 2.73^[a] |
| CCCCC(O)(Cn1cncc1C#N)c1ccccc1Cl (stereo not drawn) | 2.80^[a] |
| N#Cc1cncn1CC(O)(c1ccc(F)cc1Br)C1CC1 (stereo not drawn) | 2.46^[a] |
| CC(O)(Cn1cncc1Cl)c1ccc(Oc2ccc(Br)nc2)cc1Cl (stereo not drawn) | 2.11^[a] |
| COC(Cn1cncc1C#N)c1ccc(Oc2ccc(Cl)cc2)cc1C(F)(F)F (stereo not drawn) | 4.15^[a] |
| N#Cc1cncn1CC(O)(c1ccc(Cl)cc1F)C1(Cl)CC1 (stereo not drawn) | 2.57^[a] |
| C#CCOC(Cn1cncc1F)c1ccc(Oc2ccc(Cl)cc2)cc1C(F)(F)F (stereo not drawn) | 3.26^[a] |
| C[Si](C)(C)C#CC(O)(Cn1cncc1C(F)(F)F)C1(Cl)CC1 (stereo not drawn) | 3.52^[a] |
| N#Cc1cncn1CC(O)(c1cc(Cl)cc(F)c1Cl)C1(F)CC1 (stereo not drawn) | 2.52^[a] |
| C[Si](C)(C)C#CC(O)(CC1CC1)Cn1cncc1C#N (stereo not drawn) | 2.70^[a] |

INPUT: Report LogP, nothing else, for this compound: N#Cc1cncn1CC(O)c1cnc(Oc2ccc(C(F)(F)F)nc2)cc1C(F)(F)F (stereo not drawn)
OUTPUT: 2.46^[a]

INPUT: Report LogP, nothing else, for this compound: CCOC(Cn1cncc1F)c1cnc(Oc2ccc(Cl)cc2)cc1C(F)(F)F (stereo not drawn)
OUTPUT: 3.15^[a]

INPUT: Report LogP, nothing else, for this compound: N#Cc1cncn1CC(O)(c1ccc(F)cc1Br)C1(F)CC1 (stereo not drawn)
OUTPUT: 2.31^[a]

INPUT: Report LogP, nothing else, for this compound: CC(C)(C)CC(O)(Cn1cncc1C#N)c1ccccc1Cl (stereo not drawn)
OUTPUT: 3.17^[a]

INPUT: Report LogP, nothing else, for this compound: N#Cc1cncn1CC(O)(c1ccc(C#CC2CC2)cc1F)C1(Cl)CC1 (stereo not drawn)
OUTPUT: 3.11^[a]

INPUT: Report LogP, nothing else, for this compound: OC(Cn1cncc1C(F)(F)F)c1ccc(Oc2ccc(Cl)cc2)cc1Cl (stereo not drawn)
OUTPUT: 3.80^[a]

INPUT: Report LogP, nothing else, for this compound: OC(Cn1cncc1Cl)c1ccc(Oc2ccc(Br)cn2)cc1Cl (stereo not drawn)
OUTPUT: 2.10^[a]

INPUT: Report LogP, nothing else, for this compound: OC(Cn1cncc1Cl)c1ccc(Oc2ccc(I)cc2)cc1Br (stereo not drawn)
OUTPUT: 2.80^[a]
